Source listed as the Human Domainome abundance scans (Beltran et al. 2025).

B1: Mineralocorticoid receptor, residues 600 to 675; numbered along this chain, P08235 (parent)
chain: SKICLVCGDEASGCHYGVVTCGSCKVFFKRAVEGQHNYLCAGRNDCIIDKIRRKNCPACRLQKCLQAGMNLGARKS

# Variants of: B1
# test-summary: abundance fitness (aPCA) (normalised: wild type 0, dead -1); higher = more abundant; growth selection in yeast, the domain comes from the species named
# experimental-conditions: Homo sapiens
Please note: True applies when abundance fitness is -0.08 or greater, and False applies otherwise.

Study these solved cases before continuing.
[[record]]
chain = "SKICLVCGDEASGCHYGVVTCGSCKVFFKRAHEGQHNYLCAGRNDCIIDKIRRKNCPACRLQKCLQAGMNLGARKS"
group = "False"

[[record]]
chain = "SKICLVCGDEASGCHYGVVTCGSCKVFFKRAVWGQHNYLCAGRNDCIIDKIRRKNCPACRLQKCLQAGMNLGARKS"
group = "False"

[[record]]
chain = "SKICLVCGDEASGCHYGVVTCGSCKVFFKRAVEGQHNYLCAGRNDAIIDKIRRKNCPACRLQKCLQAGMNLGARKS"
group = "False"


Is abundance fitness for SKICLVCGDEASGCHYGVVTCGSCKVFFKRAVIGQHNYLCAGRNDCIIDKIRRKNCPACRLQKCLQAGMNLGARKS at or above -0.08?
False

Is abundance fitness for SKICLVCGDEASGCHYGVVTCGSCKVFFKRAVEGQHNYLCAGRNDCIIDKIRRKNCEACRLQKCLQAGMNLGARKS at or above -0.08?
True

Is abundance fitness for SKICLVCGDEASGCHYGVVTCGSCKVFFKRAVEGQHNYLCAGRNDCIIDKIRRKNCPACRLQKCLQAGMNLGALKS at or above -0.08?
True

Is abundance fitness for SKICLVCGDEASGCHYGVVTCGSCKVFFKRAVEGQHNYTCAGRNDCIIDKIRRKNCPACRLQKCLQAGMNLGARKS at or above -0.08?
True

Is abundance fitness for SKICLVCGDEASGCHYGVVTCGSCKVFFKRAVEGQHNYLCAGRNDCIIDKIRRKNCPACRLQKCLQASMNLGARKS at or above -0.08?
False

Is abundance fitness for SKICLVCGDEASGCHYGVVTCGSCKVFFKRAVEFQHNYLCAGRNDCIIDKIRRKNCPACRLQKCLQAGMNLGARKS at or above -0.08?
True

Is abundance fitness for SKICLVCGDEASGCHYGVVTCGSCKVFFKRAVEGQHNYLCAGRNDCIIDKIRRKNCPACRLQKCLQAGWNLGARKS at or above -0.08?
False

Is abundance fitness for SKICLVCGDEASGCHYGVVTCGSCKVFFKRAVETQHNYLCAGRNDCIIDKIRRKNCPACRLQKCLQAGMNLGARKS at or above -0.08?
True

Is abundance fitness for SKICLVCGDEASGCQYGVVTCGSCKVFFKRAVEGQHNYLCAGRNDCIIDKIRRKNCPACRLQKCLQAGMNLGARKS at or above -0.08?
False

Is abundance fitness for SKICLVCGDEASGCFYGVVTCGSCKVFFKRAVEGQHNYLCAGRNDCIIDKIRRKNCPACRLQKCLQAGMNLGARKS at or above -0.08?
True
